# −TΔS per record follows
biological target: Link_TSG6 (Homo sapiens); construct: made in house; test: ITC of HA oligosaccharides binding to Link_TSG6; settings: Table 4; ITC, 25 °C, 5 mM MES pH 6.0; mean ± SEM
Sequence (P98066 36-129 limits assumed): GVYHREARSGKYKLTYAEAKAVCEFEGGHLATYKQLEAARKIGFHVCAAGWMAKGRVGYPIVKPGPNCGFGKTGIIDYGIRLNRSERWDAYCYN
Express your answer in kcal•mol^a1, writing the number without its unit.

Recorded results for 3 compounds are shown here.
[
  {
    "compound": "COc1ccc(C(=O)O)c(NC[C@H](NC(C)=O)[C@@H](O[C@@H]2O[C@H](C(=O)O)[C@@H](O[C@@H]3O[C@H](CO)[C@@H](O)[C@H](O[C@@H]4O[C@H](C(=O)O)[C@@H](O[C@@H]5O[C@H](CO)[C@@H](O)[C@H](O[C@@H]6O[C@H](C(=O)O)[C@@H](O[C@@H]7O[C@H](CO)[C@@H](O)[C@H](O[C@@H]8O[C@H](C(=O)O)[C@@H](O)[C@H](O)[C@H]8O)[C@H]7NC(C)=O)[C@H](O)[C@H]6O)[C@H]5NC(C)=O)[C@H](O)[C@H]4O)[C@H]3NC(C)=O)[C@H](O)[C@H]2O)[C@H](O)[C@H](O)CO)c1",
    "target-entity": "Link_TSG6 (Homo sapiens)",
    "result-units": "kcal•mol^a1",
    "−TΔS": "−0.16"
  },
  {
    "compound": "CC(=O)N[C@H]1[C@H](O[C@H]2[C@H](O)[C@@H](O)[C@H](O[C@H]3[C@H](O)[C@@H](CO)O[C@@H](O[C@H]4[C@H](O)[C@@H](O)[C@H](O[C@@H]([C@H](O)[C@H](O)CO)[C@H](CNc5ccc6c(c5)CCC6)NC(C)=O)O[C@@H]4C(=O)O)[C@@H]3NC(C)=O)O[C@@H]2C(=O)O)O[C@H](CO)[C@@H](O)[C@@H]1O[C@@H]1O[C@H](C(=O)O)[C@@H](O)[C@H](O)[C@H]1O",
    "target-entity": "Link_TSG6 (Homo sapiens)",
    "result-units": "kcal•mol^a1",
    "−TΔS": "−0.96"
  },
  {
    "compound": "CC(=O)N[C@H]1[C@H](O[C@H]2[C@H](O)[C@@H](O)[C@H](O[C@H]3[C@H](O)[C@@H](CO)O[C@@H](O[C@H]4[C@H](O)[C@@H](O)[C@H](O[C@H]5[C@H](O)[C@@H](CO)O[C@@H](O[C@H]6[C@H](O)[C@@H](O)[C@H](O[C@H]7[C@H](O)[C@@H](CO)OC(O)[C@@H]7NC(C)=O)O[C@@H]6C(=O)O)[C@@H]5NC(C)=O)O[C@@H]4C(=O)O)[C@@H]3NC(C)=O)O[C@@H]2C(=O)O)O[C@H](CO)[C@@H](O)[C@@H]1O[C@@H]1O[C@H](C(=O)O)[C@@H](O)[C@H](O)[C@H]1O (stereo partly shown) [HA8^AN, reference compound]",
    "target-entity": "Link_TSG6 (Homo sapiens)",
    "result-units": "kcal•mol^a1",
    "−TΔS": "−1.63"
  }
]

q: Need −TΔS of COc1ccc(C(=O)O)c(NC[C@H](NC(C)=O)[C@@H](O[C@@H]2O[C@H](C(=O)O)[C@@H](O[C@@H]3O[C@H](CO)[C@@H](O)[C@H](O[C@@H]4O[C@H](C(=O)O)[C@@H](O[C@@H]5O[C@H](CO)[C@@H](O)[C@H](O[C@@H]6O[C@H](C(=O)O)[C@@H](O)[C@H](O)[C@H]6O)[C@H]5NC(C)=O)[C@H](O)[C@H]4O)[C@H]3NC(C)=O)[C@H](O)[C@H]2O)[C@H](O)[C@H](O)CO)c1 , thanks.
a: 1.44

---

molecular target: Link_TSG6 (Homo sapiens); construct: made in house; test: ITC of HA oligosaccharides binding to Link_TSG6; details: Table 4; ITC, 25 °C, 5 mM MES pH 6.0; mean ± SEM
Returns: string. Value is t if measured ΔH is below -7 kcal/mol, and f if it is greater than or equal to it.

Examples with answers:
[
  {
    "item-smiles": "CC(=O)N[C@H]1[C@H](O[C@H]2[C@H](O)[C@@H](O)[C@H](O[C@H]3[C@H](O)[C@@H](CO)O[C@@H](O[C@H]4[C@H](O)[C@@H](O)[C@H](O[C@H]5[C@H](O)[C@@H](CO)O[C@@H](O[C@H]6[C@H](O)[C@@H](O)[C@H](O[C@@H]([C@H](O)[C@H](O)CO)[C@H](CNc7ccc8c(c7)CCC8)NC(C)=O)O[C@@H]6C(=O)O)[C@@H]5NC(C)=O)O[C@@H]4C(=O)O)[C@@H]3NC(C)=O)O[C@@H]2C(=O)O)O[C@H](CO)[C@@H](O)[C@@H]1O[C@@H]1O[C@H](C(=O)O)[C@@H](O)[C@H](O)[C@H]1O",
    "class-name": "t"
  },
  {
    "item-smiles": "COc1ccc(C(=O)O)c(NC[C@H](NC(C)=O)[C@@H](O[C@@H]2O[C@H](C(=O)O)[C@@H](O[C@@H]3O[C@H](CO)[C@@H](O)[C@H](O[C@@H]4O[C@H](C(=O)O)[C@@H](O[C@@H]5O[C@H](CO)[C@@H](O)[C@H](O[C@@H]6O[C@H](C(=O)O)[C@@H](O)[C@H](O)[C@H]6O)[C@H]5NC(C)=O)[C@H](O)[C@H]4O)[C@H]3NC(C)=O)[C@H](O)[C@H]2O)[C@H](O)[C@H](O)CO)c1",
    "class-name": "t"
  },
  {
    "item-smiles": "CC(=O)N[C@H]1[C@H](O[C@H]2[C@H](O)[C@@H](O)[C@H](O[C@H]3[C@H](O)[C@@H](CO)O[C@@H](O[C@H]4[C@H](O)[C@@H](O)[C@H](O[C@@H]([C@H](O)[C@H](O)CO)[C@H](CNc5ccc6c(c5)CCC6)NC(C)=O)O[C@@H]4C(=O)O)[C@@H]3NC(C)=O)O[C@@H]2C(=O)O)O[C@H](CO)[C@@H](O)[C@@H]1O[C@@H]1O[C@H](C(=O)O)[C@@H](O)[C@H](O)[C@H]1O",
    "class-name": "t"
  },
  {
    "item-smiles": "CC(=O)N[C@H]1[C@H](O[C@H]2[C@H](O)[C@@H](O)[C@H](O[C@H]3[C@H](O)[C@@H](CO)O[C@@H](O[C@H]4[C@H](O)[C@@H](O)[C@H](O[C@H]5[C@H](O)[C@@H](CO)O[C@@H](O[C@H]6[C@H](O)[C@@H](O)[C@H](O[C@@H]([C@H](O)[C@H](O)CO)[C@H](CNc7cc[nH]n7)NC(C)=O)O[C@@H]6C(=O)O)[C@@H]5NC(C)=O)O[C@@H]4C(=O)O)[C@@H]3NC(C)=O)O[C@@H]2C(=O)O)O[C@H](CO)[C@@H](O)[C@@H]1O[C@@H]1O[C@H](C(=O)O)[C@@H](O)[C@H](O)[C@H]1O",
    "class-name": "f"
  }
]

Now consider a different compound.
q: Here's an entry: CC(=O)N[C@H]1[C@H](O[C@H]2[C@H](O)[C@@H](O)[C@H](O[C@H]3[C@H](O)[C@@H](CO)O[C@@H](O[C@H]4[C@H](O)[C@@H](O)[C@H](O[C@@H]([C@H](O)[C@H](O)CO)[C@H](CNc5cc[nH]n5)NC(C)=O)O[C@@H]4C(=O)O)[C@@H]3NC(C)=O)O[C@@H]2C(=O)O)O[C@H](CO)[C@@H](O)[C@@H]1O[C@@H]1O[C@H](C(=O)O)[C@@H](O)[C@H](O)[C@H]1O . Is its ΔH below -7 kcal/mol?
a: t

---

Molecular target: Link_TSG6 (Homo sapiens)
Construct: made in house
Test: ITC of HA oligosaccharides binding to Link_TSG6
Conditions: Table 1; ITC, 25 °C, 5 mM MES pH 6.0; mean ± SEM
Description: ITC experiments were performed using a MicroCal PEAQ-ITC instrument (Malvern Instruments). Oligosaccharide stock solutions were prepared at 0.29 mM (in 5 mM MES, pH 6.0) and injected (18 × 2 μl with 120 s spacing between injections) into the cell containing ∼200 μl Link_TSG6 (0.029 mM) in matched buffer at 25 °C. […] Each oligosaccharide was analyzed in four independently performed ITC experiments.
measured-attribute: −TΔS (kcal/mol)
Give just the number in kcal/mol; leave the unit off.

q: For the compound shown here, CC(=O)N[C@H]1[C@H](O[C@H]2[C@H](O)[C@@H](O)[C@H](O[C@H]3[C@H](O)[C@@H](CO)O[C@@H](O[C@H]4[C@H](O)[C@@H](O)[C@H](O[C@H]5[C@H](O)[C@@H](CO)O[C@@H](O[C@H]6[C@H](O)[C@@H](O)[C@H](O[C@H]7[C@H](O)[C@@H](CO)OC(O)[C@@H]7NC(C)=O)O[C@@H]6C(=O)O)[C@@H]5NC(C)=O)O[C@@H]4C(=O)O)[C@@H]3NC(C)=O)O[C@@H]2C(=O)O)O[C@H](CO)[C@@H](O)[C@@H]1O[C@@H]1O[C@H](C(=O)O)[C@@H](O)[C@H](O)[C@H]1O (stereo partly shown) [HA8^AN, reference compound] , give the reported −TΔS.
a: -1.63
